// data source = ChEMBL document CHEMBL1148105

Tested on: Staphylococcus aureus
Assay: Antimicrobial activity against Staphylococcus aureus
Format: functional
molecules and their reported MIC
Kindly provide the numeric value in µg/mL only, without the unit symbol.

Checklist item: MIC tested on Staphylococcus aureus, entry C/C=C/C1=CC(=O)[C@@H](O)[C@@H]1O [TERREIN] , value?
50

***
Missing value: MIC, Staphylococcus aureus, entry C=C(C)[C@H]1COc2c(C)cc3oc4c(CC=C(C)C)ccc(O)c4c(=O)c3c2[C@@H]1O [SHAMIXANTHONE] . Fill in?
50

For Staphylococcus aureus, provide MIC of C=C(C)[C@H]1COc2c(C)cc3oc4c(C[C@H](O)C(C)(C)O)ccc(O)c4c(=O)c3c2[C@@H]1O.O [TAJIXANTHONE HYDRATE] please.
50

Test system Staphylococcus aureus; read-out MIC; what value for C=C(C)[C@H]1COc2c(C)cc3oc4c(C[C@H](OC=O)C(C)(C)O)ccc(O)c4c(=O)c3c2[C@@H]1O [VARIXANTHONE] ?
12.5
